molecular target: PIK3CG (human) (UniProt P48736)
Sequence (P48736 whole entry, looked up): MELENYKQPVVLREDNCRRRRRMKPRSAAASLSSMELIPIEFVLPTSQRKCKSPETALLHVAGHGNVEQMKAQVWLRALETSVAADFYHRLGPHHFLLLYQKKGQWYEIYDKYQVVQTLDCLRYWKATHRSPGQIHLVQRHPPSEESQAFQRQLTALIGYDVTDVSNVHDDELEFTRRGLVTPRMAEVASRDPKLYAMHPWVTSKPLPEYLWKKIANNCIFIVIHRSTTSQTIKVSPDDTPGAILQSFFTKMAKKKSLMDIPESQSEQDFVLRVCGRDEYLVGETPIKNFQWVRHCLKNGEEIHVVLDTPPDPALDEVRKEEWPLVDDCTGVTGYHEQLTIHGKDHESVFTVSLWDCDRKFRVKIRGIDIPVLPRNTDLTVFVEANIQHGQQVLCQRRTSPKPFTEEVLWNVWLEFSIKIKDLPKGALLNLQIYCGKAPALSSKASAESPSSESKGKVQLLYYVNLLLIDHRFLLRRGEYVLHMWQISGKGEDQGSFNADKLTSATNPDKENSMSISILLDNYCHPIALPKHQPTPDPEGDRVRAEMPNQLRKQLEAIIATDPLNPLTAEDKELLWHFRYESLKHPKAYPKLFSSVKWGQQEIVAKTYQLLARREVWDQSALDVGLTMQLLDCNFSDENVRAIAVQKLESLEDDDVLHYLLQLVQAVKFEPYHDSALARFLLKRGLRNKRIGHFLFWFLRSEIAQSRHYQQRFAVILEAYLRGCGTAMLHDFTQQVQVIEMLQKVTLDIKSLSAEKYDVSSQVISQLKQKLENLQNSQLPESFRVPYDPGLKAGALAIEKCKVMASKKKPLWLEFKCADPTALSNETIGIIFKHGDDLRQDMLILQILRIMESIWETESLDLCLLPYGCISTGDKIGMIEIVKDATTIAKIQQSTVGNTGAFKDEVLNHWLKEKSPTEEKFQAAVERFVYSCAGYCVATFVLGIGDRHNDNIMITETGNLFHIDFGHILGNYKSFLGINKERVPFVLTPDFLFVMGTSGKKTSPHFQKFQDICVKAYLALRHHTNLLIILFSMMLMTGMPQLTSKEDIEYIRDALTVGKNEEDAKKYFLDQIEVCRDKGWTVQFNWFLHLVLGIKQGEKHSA
Readings of Ki for the listed compounds
endpoint: Ki

{"compound": "CCOc1ccnc(N2Cc3nc(-c4cnc(OC)c(OC)c4)cc(C)c3C2=O)c1", "targetUnderTest": "PIK3CG (human) (UniProt P48736)", "assayResult": "< 100 nM"}
{"compound": "CCO[C@@]1(C)c2nc(-c3cnc(OC)c(OC)c3)cc(C)c2C(=O)N1c1cnn(CC(F)(F)F)c1", "targetUnderTest": "PIK3CG (human) (UniProt P48736)", "assayResult": "< 100 nM"}
{"compound": "Cc1cc(-c2cnc(C)c(C(=O)N(C)C)c2)nc2c1C(=O)N(c1cnn(CC(F)(F)F)c1)C2(C)C", "targetUnderTest": "PIK3CG (human) (UniProt P48736)", "assayResult": "< 100 nM"}
{"compound": "COc1ncc(-c2ccc3c(n2)C(C)N(c2cnn(CC(F)(F)F)c2)C3=O)cc1OC(F)F (configuration not stated)", "targetUnderTest": "PIK3CG (human) (UniProt P48736)", "assayResult": "< 100 nM"}
{"compound": "COc1cc(-c2ccc3c(n2)CN(c2ccc(N4CCOC(CO)C4)nc2)C3=O)cnc1OC (configuration not stated)", "targetUnderTest": "PIK3CG (human) (UniProt P48736)", "assayResult": "100 to 490 nM"}
{"compound": "COc1ncc(-c2cc(C)c3c(n2)CN(c2cn[nH]c2)C3=O)cc1OCC(F)(F)F", "targetUnderTest": "PIK3CG (human) (UniProt P48736)", "assayResult": "< 100 nM"}
{"compound": "COc1cncc(-c2cc(C)c3c(n2)[C@@H](C)N(c2cn[nH]c2)C3=O)c1", "targetUnderTest": "PIK3CG (human) (UniProt P48736)", "assayResult": "< 100 nM"}
{"compound": "Cc1cc(-c2ccc(Cl)c(O)c2)nc2c1C(=O)N(c1cnn(CC(F)(F)F)c1)C2", "targetUnderTest": "PIK3CG (human) (UniProt P48736)", "assayResult": "< 100 nM"}
{"compound": "COc1cc(-c2cc(C)c3c(n2)CN(c2ccn(C4CC4)n2)C3=O)cnc1OC", "targetUnderTest": "PIK3CG (human) (UniProt P48736)", "assayResult": "< 100 nM"}
{"compound": "COc1ccc(-c2cc(C)c3c(n2)CN(c2cnn(CC(F)(F)F)c2)C3=O)c(OC)c1", "targetUnderTest": "PIK3CG (human) (UniProt P48736)", "assayResult": "100 to 490 nM"}
{"compound": "COc1cc(-c2ccc3c(n2)CN(c2cnn(C(F)(F)C#N)c2)C3=O)cnc1OC", "targetUnderTest": "PIK3CG (human) (UniProt P48736)", "assayResult": "< 100 nM"}
{"compound": "CCn1cc(N2Cc3nc(-c4cnc(OC)c(OC)c4)ccc3C2=O)ccc1=O", "targetUnderTest": "PIK3CG (human) (UniProt P48736)", "assayResult": "< 100 nM"}
{"compound": "COc1cc(-c2ccc3c(n2)CN(c2ccc(N4CCCC(CO)C4)nc2)C3=O)cnc1OC (configuration not stated)", "targetUnderTest": "PIK3CG (human) (UniProt P48736)", "assayResult": "< 100 nM"}
{"compound": "CCOc1cc(-c2cc(C)c3c(n2)CN(c2cnn(CC#N)c2)C3=O)cnc1OC", "targetUnderTest": "PIK3CG (human) (UniProt P48736)", "assayResult": "< 100 nM"}
{"compound": "COc1ncc(-c2cc(C)c3c(n2)CN(c2ccn(C4COC4)n2)C3=O)cc1OCC(F)(F)F", "targetUnderTest": "PIK3CG (human) (UniProt P48736)", "assayResult": "< 100 nM"}
{"compound": "Cc1cc(-c2cnc(C)c(OCC(F)F)c2)nc2c1C(=O)N(c1cnn(CC(F)F)c1)C2C (configuration not stated)", "targetUnderTest": "PIK3CG (human) (UniProt P48736)", "assayResult": "< 100 nM"}
{"compound": "COc1cc(-c2ccc3c(n2)C(C)N(c2cncc(C(C)(C)C#N)c2)C3=O)cnc1OC (configuration not stated)", "targetUnderTest": "PIK3CG (human) (UniProt P48736)", "assayResult": "100 to 490 nM"}
{"compound": "COc1cc(-c2cc(C)c3c(n2)CN(c2ccnc(OCC(F)F)c2)C3=O)cnc1OC", "targetUnderTest": "PIK3CG (human) (UniProt P48736)", "assayResult": "< 100 nM"}
{"compound": "CNC(=O)c1cc(-c2cc(C)c3c(n2)C(C)(C)N(c2cnn(CC(F)(F)F)c2)C3=O)cnc1OC", "targetUnderTest": "PIK3CG (human) (UniProt P48736)", "assayResult": "100 to 490 nM"}
{"compound": "Cc1cc(-c2cnc(C)c(O)c2)nc2c1C(=O)N(c1cnn(CC(F)(F)F)c1)C2", "targetUnderTest": "PIK3CG (human) (UniProt P48736)", "assayResult": "< 100 nM"}
{"compound": "COc1cc(-c2ccc3c(n2)[C@@H](C)N(c2cnn(CC#N)c2)C3=O)cnc1OC", "targetUnderTest": "PIK3CG (human) (UniProt P48736)", "assayResult": "< 100 nM"}
{"compound": "COc1ccc(-c2ccc3c(n2)CN(c2cnn(CC#N)c2)C3=O)c(OC)n1", "targetUnderTest": "PIK3CG (human) (UniProt P48736)", "assayResult": "< 100 nM"}
{"compound": "COc1cc(-c2cc(C)c3c(n2)CN(c2csc(C)c2)C3=O)cnc1OC", "targetUnderTest": "PIK3CG (human) (UniProt P48736)", "assayResult": "< 100 nM"}
{"compound": "COc1cc(-c2ccc3c(n2)CN(c2ccc(=O)n(CC#N)c2)C3=O)cnc1OC", "targetUnderTest": "PIK3CG (human) (UniProt P48736)", "assayResult": "< 100 nM"}
{"compound": "Cc1cc(-c2cncc(C(=O)N(C)C(C)CO)c2)nc2c1C(=O)N(c1cnn(CC(F)(F)F)c1)C2(C)C (configuration not stated)", "targetUnderTest": "PIK3CG (human) (UniProt P48736)", "assayResult": "< 100 nM"}
{"compound": "COc1cc(-c2cc(C)c3c(n2)C(O)N(c2cnn(CC(F)(F)F)c2)C3=O)cnc1OC (configuration not stated)", "targetUnderTest": "PIK3CG (human) (UniProt P48736)", "assayResult": "< 100 nM"}
{"compound": "COc1cc(-c2ccc3c(n2)CN(c2cnn(C4CCCCC4O)c2)C3=O)cnc1OC (configuration not stated)", "targetUnderTest": "PIK3CG (human) (UniProt P48736)", "assayResult": "100 to 490 nM"}
{"compound": "Cc1cc(-c2cncc(C(=O)NC3CC3)c2)nc2c1C(=O)N(c1cnn(CC(F)(F)F)c1)C2(C)C", "targetUnderTest": "PIK3CG (human) (UniProt P48736)", "assayResult": "100 to 490 nM"}
{"compound": "COc1cc(-c2cc(C)c3c(n2)C2(CCCO2)N(c2cnn(CC(F)(F)F)c2)C3=O)cnc1OC(C)C (configuration not stated)", "targetUnderTest": "PIK3CG (human) (UniProt P48736)", "assayResult": "< 100 nM"}
{"compound": "CCOCCCOc1ncc(-c2cc(C)c3c(n2)CN(c2cnn(CC(F)(F)F)c2)C3=O)cc1OC", "targetUnderTest": "PIK3CG (human) (UniProt P48736)", "assayResult": "100 to 490 nM"}
{"compound": "CCOC1(C)c2nc(-c3cnc(OC)c(OC)c3)cc(C)c2C(=O)N1c1cnn(CC(F)(F)F)c1 (configuration not stated)", "targetUnderTest": "PIK3CG (human) (UniProt P48736)", "assayResult": "< 100 nM"}
{"compound": "CCOc1cc(-c2cc(C)c3c(c2)CN(c2cnn(CC#N)c2)C3=O)cnc1OCC", "targetUnderTest": "PIK3CG (human) (UniProt P48736)", "assayResult": "< 100 nM"}
{"compound": "COc1cc(-c2cc(C)c3c(n2)CN(c2cc(C)n(Cc4ccccn4)n2)C3=O)cnc1OC", "targetUnderTest": "PIK3CG (human) (UniProt P48736)", "assayResult": "< 100 nM"}
{"compound": "CCn1cc(N2Cc3nc(-c4cnc(OC)c(OC(F)F)c4)cc(C)c3C2=O)cn1", "targetUnderTest": "PIK3CG (human) (UniProt P48736)", "assayResult": "< 100 nM"}
{"compound": "Cc1cncc(-c2cc(C)c3c(n2)CN(c2cnn(CC#N)c2)C3=O)c1", "targetUnderTest": "PIK3CG (human) (UniProt P48736)", "assayResult": "< 100 nM"}
{"compound": "Cc1cc(-c2cncc(OC(F)F)c2)nc2c1C(=O)N(c1cnn(C[C@H](C)O)c1)[C@H]2C", "targetUnderTest": "PIK3CG (human) (UniProt P48736)", "assayResult": "< 100 nM"}
{"compound": "CCOc1ncc(-c2cc(C)c3c(n2)CN(c2cncc(CCC#N)c2)C3=O)cc1OC", "targetUnderTest": "PIK3CG (human) (UniProt P48736)", "assayResult": "< 100 nM"}

Source of measurements: the Kinase Knowledgebase extract (Sharma et al. 2016)
